Every entry's value here was drawn from paper PMC9307983.

- SUBJECT_OF_TEST: Ser339Ala MGL (Citrobacter freundii, UniProt Q84AR1, S339A)
- TEST_DETAILS: coenzyme (PLP) dissociation constant by ultrafiltration, Ser339Ala MGL apoenzyme
- Type: binding
- CONDITIONS: mutant enzyme, pH 8.0, 30°C, Scatchard coordinates
pKd: −log10 of the molar value.

[
  {
    "MOLECULE": "Cc1ncc(COP(=O)(O)O)c(C=O)c1O [PLP, pyridoxal 5’-phosphate]",
    "pKd": 6.00
  }
]

====

- SUBJECT_OF_TEST: MGL, Ser339Ala (Citrobacter freundii, UniProt Q84AR1, S339A)
- TEST_DETAILS: biochemical
- Assay type: biochemical
pKi: −log10 of the molar value.

[
  {
    "MOL_SMILES": "C[C@H](N)C(=O)O",
    "SUBJECT_OF_TEST": "MGL, Ser339Ala (Citrobacter freundii, UniProt Q84AR1, S339A)",
    "pKi": 2.90
  }
]
